The entries below come with measured IC50 values attached.
# System: A549
# Run Description: Cytotoxicity against human A549 cells by MTT assay
# Assay type: functional, cell-based
Measured Metric: IC50 (µg/mL)

CC1(C)C=Cc2c(cc3oc4cc(O)ccc4c(=O)c3c2O)O1; 5.8
CC(C)=CCOc1ccc2c(=O)c3c(O)c(CC=C(C)C)c(OCC=C(C)C)cc3oc2c1; 7.9
CC1(C)Oc2cc(O)c3c(=O)c4ccc(O)cc4oc3c2C(O)C1O (centres undefined); 9.9
CC(C)=CCc1c(O)c(CC=C(C)C)c2oc3cc(O)ccc3c(=O)c2c1O; 6.4
CC(C)=CCOc1cc(O)c2c(=O)c3ccc(O)cc3oc2c1; 6.9
CC(C)=CCOc1ccc2c(=O)c3c(O)cc(OCC=C(C)C)cc3oc2c1; 9.3
CC1(C)C=Cc2c(cc(O)c3c(=O)c4ccc(O)cc4oc23)O1; 5.8
CC1(C)Oc2cc3oc4cc(O)ccc4c(=O)c3c(O)c2C(O)C1O (centres undefined); 5.9
CC(C)=CCc1c(O)cc2oc3cc(O)ccc3c(=O)c2c1O; 6.2
CC(C)=CCc1c(O)cc2oc3c(CC=C(C)C)c(O)ccc3c(=O)c2c1O; 5
CC(C)=CCCC1(C)C=Cc2c(cc3oc4cc(O)ccc4c(=O)c3c2O)O1 (centres undefined); 6.6
CC(C)=CCCC1(C)C=Cc2c(cc(O)c3c(=O)c4ccc(O)cc4oc23)O1 (centres undefined); 5.1
CC(C)=CCC[C@]1(C)C=Cc2c(O)c3c(c(CC=C(C)C)c2O1)O[C@]12C(=C[C@@H]4C[C@H]1C(C)(C)O[C@@]2(C/C=C(/C)C(=O)O)C4=O)C3=O; 0.5

---

# Run Description: Cytotoxicity against human KBVIN cells by MTT assay
# Format: functional, cell-based
class 1 if IC50 is below 5 µg/mL. class 0 if not; exact matches included in class 0.

CC(C)=CCOc1ccc2c(=O)c3c(O)cc(OCC=C(C)C)cc3oc2c1; class 0
CC(=O)O[C@H]1C(=O)[C@@]2(C)[C@H]([C@H](OC(=O)c3ccccc3)[C@]3(O)C[C@H](OC(=O)[C@H](O)[C@@H](NC(=O)c4ccccc4)c4ccccc4)C(C)=C1C3(C)C)[C@]1(OC(C)=O)CO[C@@H]1C[C@@H]2O [PACLITAXEL]; class 1
CC(C)=CCc1c(O)cc2oc3cc(O)ccc3c(=O)c2c1O; class 0
CC(C)=CCc1c(O)c(CC=C(C)C)c2oc3cc(O)ccc3c(=O)c2c1O; class 0
CC1(C)C=Cc2c(cc3oc4cc(O)ccc4c(=O)c3c2O)O1; class 0
CC(C)=CCc1c(O)cc2oc3c(CC=C(C)C)c(O)ccc3c(=O)c2c1O; class 1
CC(C)=CCC[C@]1(C)C=Cc2c(O)c3c(c(CC=C(C)C)c2O1)O[C@]12C(=C[C@@H]4C[C@H]1C(C)(C)O[C@@]2(C/C=C(/C)C(=O)O)C4=O)C3=O [GAMBOGIC ACID]; class 1
CC(C)=CCCC1(C)Oc2cc(O)c3c(=O)c4ccc(O)cc4oc3c2C(O)C1O (stereo not given); class 0
CC1(C)C=Cc2c(cc(O)c3c(=O)c4ccc(O)cc4oc23)O1; class 1
CC1(C)Oc2cc(O)c3c(=O)c4ccc(O)cc4oc3c2C(O)C1O (stereo not given); class 1
CC1(C)Oc2cc3oc4cc(O)ccc4c(=O)c3c(O)c2C(O)C1O (stereo not given); class 0
O=c1c2ccc(O)cc2oc2cc(O)cc(O)c12; class 0
COc1ccc2c(=O)c3c(O)cc(O)cc3oc2c1; class 0
CC(C)=CCOc1ccc2c(=O)c3c(O)c(CC=C(C)C)c(OCC=C(C)C)cc3oc2c1; class 0
CC(C)=CCCC1(C)C=Cc2c(cc3oc4cc(O)ccc4c(=O)c3c2O)O1 (stereo not given); class 0
CC(C)=CCOc1ccc2c(=O)c3c(OCC=C(C)C)cc(OCC=C(C)C)cc3oc2c1; class 0
CC(C)=CCCC1(C)Oc2cc3oc4cc(O)ccc4c(=O)c3c(O)c2C(O)C1O (stereo not given); class 0
CC(C)=CCCC1(C)C=Cc2c(cc(O)c3c(=O)c4ccc(O)cc4oc23)O1 (stereo not given); class 0
COc1ccc2c(=O)c3c(O)cc(OC)cc3oc2c1; class 0
CC(C)=CCOc1cc(O)c2c(=O)c3ccc(O)cc3oc2c1; class 0
